First Scan Tm overview
# assay.comment: Thermal stability of cysteine-NEM conjugates by DSC
# Format: physicochemical
# setup.conditions: DSC 25-100 °C, 1 °C per minute
Reply numerically in °C, unit not repeated.

These recorded examples may help you get a feel for the data.
E11C: cysteine variant of P54AR4-83v2 (SEQ ID NOS: 191 and 229); NEM and VC-MMAF conjugates (conjugate, NEM or vcMMAF conjugate; EGFR binding FN3 domain, NEM and VC-MMAF conjugates) MLPAPKNLVVSCVTEDSARLSWDDPWAFYESFLIQYQESEKVGEAIVLTVPGSERSYDLTGLKPGTEYTVSIYGVHNVYKDTNMRGLPLSAIFTT    71
S38C: cysteine variant of P54AR4-83v2 (SEQ ID NOS: 198 and 236); NEM and VC-MMAF conjugates (conjugate, NEM or vcMMAF conjugate; EGFR binding FN3 domain, NEM and VC-MMAF conjugates) MLPAPKNLVVSEVTEDSARLSWDDPWAFYESFLIQYQECEKVGEAIVLTVPGSERSYDLTGLKPGTEYTVSIYGVHNVYKDTNMRGLPLSAIFTT    65
G60C: cysteine variant of P54AR4-83v2 (SEQ ID NOS: 207 and 245); NEM and VC-MMAF conjugates (conjugate, NEM or vcMMAF conjugate; EGFR binding FN3 domain, NEM and VC-MMAF conjugates) MLPAPKNLVVSEVTEDSARLSWDDPWAFYESFLIQYQESEKVGEAIVLTVPGSERSYDLTCLKPGTEYTVSIYGVHNVYKDTNMRGLPLSAIFTT    66
K62C: cysteine variant of P54AR4-83v2 (SEQ ID 208 and 246); NEM and VC-MMAF conjugates (conjugate, NEM or vcMMAF conjugate; EGFR binding FN3 domain, NEM and VC-MMAF conjugates) MLPAPKNLVVSEVTEDSARLSWDDPWAFYESFLIQYQESEKVGEAIVLTVPGSERSYDLTGLCPGTEYTVSIYGVHNVYKDTNMRGLPLSAIFTT    65
L47C: cysteine variant of P54AR4-83v2 (SEQ ID NOS: 202 and 240); NEM and VC-MMAF conjugates (conjugate, NEM or vcMMAF conjugate; EGFR binding FN3 domain, NEM and VC-MMAF conjugates) MLPAPKNLVVSEVTEDSARLSWDDPWAFYESFLIQYQESEKVGEAIVCTVPGSERSYDLTGLKPGTEYTVSIYGVHNVYKDTNMRGLPLSAIFTT    67

First Scan Tm measured on V74C: cysteine variant of P54AR4-83v2; NEM and VC-MMAF conjugates (conjugate, left off: small tags and cut ends, cysteine variant of P54AR4-83v2; NEM and VC-MMAF conjugates) LPAPKNLVVSEVTEDSARLSWDDPWAFYESFLIQYQESEKVGEAIVLTVPGSERSYDLTGLKPGTEYTVSIYGCHNVYKDTNMRGLPLSAIFTT = 68

Origin of values: patent US11702475B2
